Taken from patent US20150368338A1.

# Experimental system: T1, IFN-αWA (human, UniProt P05015 24-189)
# T1 construct: also called IFN-α16; alpha WA
# Assay protocol: ProteOn, one antigen concentration
Overview of reported pKd across a group of binders:
// pKd here means minus log10 of the molar concentration (mol/L)

| Binder | Value type | Recorded value |
| --- | --- | --- |
| IFWM3357 (antibody, V domains shown, VH IFWH624, VL IFWL1038; converted mAb; also called IFWB3092) VH: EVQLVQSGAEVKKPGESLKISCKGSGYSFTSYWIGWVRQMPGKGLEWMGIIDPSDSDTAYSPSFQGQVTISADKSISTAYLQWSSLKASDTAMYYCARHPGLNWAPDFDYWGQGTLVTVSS VL: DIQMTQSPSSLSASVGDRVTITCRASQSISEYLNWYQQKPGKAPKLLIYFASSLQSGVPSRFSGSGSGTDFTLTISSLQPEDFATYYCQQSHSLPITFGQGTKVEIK | pKd | 10.43 |

Incoming: May I ask what pKd has been recorded for IFWM3327 (antibody, V domains shown, VH IFWH591, VL IFWL1063; converted mAb; also called IFWB3062) VH: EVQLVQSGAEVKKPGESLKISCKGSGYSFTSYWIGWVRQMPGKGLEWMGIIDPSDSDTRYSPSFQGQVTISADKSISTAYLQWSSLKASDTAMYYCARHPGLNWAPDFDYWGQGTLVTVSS VL: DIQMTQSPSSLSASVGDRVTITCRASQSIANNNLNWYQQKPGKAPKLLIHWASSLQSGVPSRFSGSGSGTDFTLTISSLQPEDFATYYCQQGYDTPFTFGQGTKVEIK ?
Outgoing: 9.97

Incoming: And what about the binder IFWM3325 (antibody, V domains shown, VH IFWH591, VL IFWL1060; converted mAb; also called IFWB3060) VH: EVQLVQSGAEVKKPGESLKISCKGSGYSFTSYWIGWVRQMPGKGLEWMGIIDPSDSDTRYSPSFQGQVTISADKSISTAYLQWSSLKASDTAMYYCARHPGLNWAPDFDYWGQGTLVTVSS VL: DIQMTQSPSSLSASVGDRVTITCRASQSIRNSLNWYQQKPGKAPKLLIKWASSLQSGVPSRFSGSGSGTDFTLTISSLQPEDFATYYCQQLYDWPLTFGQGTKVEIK ?
Outgoing: 10.04

Incoming: And what about the binder IFWM3350 (antibody, V domains shown, VH IFWH624, VL IFWL1009; converted mAb; also called IFWB3085) VH: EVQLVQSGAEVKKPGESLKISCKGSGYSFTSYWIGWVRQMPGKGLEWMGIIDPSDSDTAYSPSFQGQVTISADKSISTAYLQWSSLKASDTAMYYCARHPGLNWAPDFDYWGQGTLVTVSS VL: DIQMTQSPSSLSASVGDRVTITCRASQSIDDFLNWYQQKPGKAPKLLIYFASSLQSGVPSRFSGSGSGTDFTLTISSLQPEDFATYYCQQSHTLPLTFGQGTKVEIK ?
Outgoing: 10.18

Incoming: And what about the binder IFWM3360 (antibody, V domains shown, VH IFWH624, VL IFWL1048; converted mAb; also called IFWB3095) VH: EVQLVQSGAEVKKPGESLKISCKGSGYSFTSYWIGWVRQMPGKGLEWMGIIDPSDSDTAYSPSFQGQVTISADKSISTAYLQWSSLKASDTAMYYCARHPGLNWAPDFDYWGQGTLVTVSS VL: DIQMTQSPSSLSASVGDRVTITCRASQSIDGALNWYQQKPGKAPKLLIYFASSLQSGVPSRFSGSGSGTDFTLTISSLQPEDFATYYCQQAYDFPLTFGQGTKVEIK ?
Outgoing: 10.21
